Target: Recombinant human Bcl-2 protein (Homo sapiens)
Assay: Bcl-2 TR-FRET assay
Format: binding
Settings: TR-FRET, 0.05 nM Bcl-2, FITC labeled Bak peptide 0.5 nM; read-out: Biochemical assay (IC50, nM) Bcl-2 WT
Protocol: Compounds disclosed herein were tested for blocking of Bcl-2 protein with its ligand in an assay based on Time-Resolved Fluorescence Resonance Energy Transfer (TR-FRET) methodology. […] The inhibition percentage of Bcl-2 interaction with its ligand in presence of increasing concentrations of compounds was calculated based on the TR-FRET signals. […]
The label Met is reserved for IC50 strictly under 0.04 nM; Not met covers values equal to or above it.

smiles.str: CC(C)c1ccccc1[C@@H]1CCCN1C1CC2(C1)CN(c1ccc(C(=O)NS(=O)(=O)c3ccc(NCC4(F)CCOCC4)c([N+](=O)[O-])c3)c(N3CCOc4nc5[nH]ccc5cc43)c1)C2
classification: Not met
//
smiles.str: CC(C)c1ccccc1[C@@H]1CCCN1C1CC2(CCN(c3ccc(C(=O)NS(=O)(=O)c4cc5c(c([N+](=O)[O-])c4)N[C@H](C[C@H]4CC[C@H](O)CC4)CO5)c(N4CCCOc5nc6[nH]ccc6cc54)c3)CC2)C1
classification: Met
//
smiles.str: CC(C)c1ccccc1[C@@H]1CCCN1C1CC2(CCN(c3ccc(C(=O)NS(=O)(=O)c4ccc(NCC5(F)CCOCC5)c([N+](=O)[O-])c4)c(N4CCOc5nc6[nH]ccc6cc54)c3)CC2)C1
classification: Met
//
smiles.str: CC(C)c1ccccc1[C@@H]1CCCN1C1CC2(C1)CN(c1ccc(C(=O)NS(=O)(=O)c3ccc(NCC4(F)CCOCC4)c([N+](=O)[O-])c3)c(N3CCCOc4nc5[nH]ccc5cc43)c1)C2
classification: Not met

* * *

molecules and their reported IC50
target: recombinant human Bcl-2-G101V protein (Homo sapiens, UniProt P10415, G101V); assay: Bcl-2-G101V TR-FRET assay; assay type: binding; conditions: TR-FRET, 0.1 nM Bcl-2-G101V, FITC labeled Bak peptide 5 nM; read-out: Biochemical assay (IC50, nM) Bcl-2 G101V

molecule: CC(C)c1ccccc1[C@@H]1CCCN1C1CC2(CCN(c3ccc(C(=O)NS(=O)(=O)c4ccc(NC[C@H]5CC[C@](C)(O)CC5)c([N+](=O)[O-])c4)c(N4C[C@@H](C)Oc5nc6[nH]ccc6cc54)c3)CC2)C1
test.system: recombinant human Bcl-2-G101V protein (Homo sapiens, UniProt P10415, G101V)
IC50 [nM]: 1.1
--
molecule: CC(C)c1ccccc1[C@@H]1CCCN1C1CC2(CCN(c3ccc(C(=O)NS(=O)(=O)c4cc5c(c([N+](=O)[O-])c4)N[C@H](C[C@H]4CC[C@H](O)CC4)CO5)c(Oc4cnc5[nH]ccc5c4)c3)CC2)C1
test.system: recombinant human Bcl-2-G101V protein (Homo sapiens, UniProt P10415, G101V)
IC50 [nM]: 0.86
--
molecule: CC(C)c1ccccc1[C@@H]1CCCN1C1CC2(CCN(c3ccc(C(=O)NS(=O)(=O)c4cc5c(c([N+](=O)[O-])c4)N[C@H](CC4CCC(O)CC4)CO5)c(N4C[C@H](C)Oc5nc6[nH]ccc6cc54)c3)CC2)C1 (stereo partly drawn)
test.system: recombinant human Bcl-2-G101V protein (Homo sapiens, UniProt P10415, G101V)
IC50 [nM]: 3.3
--
molecule: CC(C)c1ccccc1[C@@H]1CCCN1C1CC2(CCN(c3ccc(C(=O)NS(=O)(=O)c4cc5c(c([N+](=O)[O-])c4)N[C@H](C[C@H]4CC[C@H](O)CC4)CO5)c(N4C[C@@H](C)Oc5nc6[nH]ccc6cc54)c3)CC2)C1
test.system: recombinant human Bcl-2-G101V protein (Homo sapiens, UniProt P10415, G101V)
IC50 [nM]: 1.5
--
molecule: CC(C)c1ccccc1[C@@H]1CCCN1C1CC2(C1)CN(c1ccc(C(=O)NS(=O)(=O)c3ccc(NC[C@H]4CC[C@](C)(O)CC4)c([N+](=O)[O-])c3)c(N3CCCOc4nc5[nH]ccc5cc43)c1)C2
test.system: recombinant human Bcl-2-G101V protein (Homo sapiens, UniProt P10415, G101V)
IC50 [nM]: 2.4
--
molecule: [2H]C1([2H])CCC([2H])(c2ccccc2C(C)C)N1C1CC2(CCN(c3ccc(C(=O)NS(=O)(=O)c4cc5c(c([N+](=O)[O-])c4)N[C@H](C[C@H]4CC[C@H](O)CC4)CO5)c(Oc4cnc5[nH]ccc5c4)c3)CC2)C1 (stereo partly drawn)
test.system: recombinant human Bcl-2-G101V protein (Homo sapiens, UniProt P10415, G101V)
IC50 [nM]: 0.92
--
molecule: CC(C)c1ccccc1[C@@H]1CCCN1C1CC2(C1)CN(c1ccc(C(=O)NS(=O)(=O)c3ccc(NCC4(F)CCOCC4)c([N+](=O)[O-])c3)c(N3CCOc4nc5[nH]ccc5cc43)c1)C2
test.system: recombinant human Bcl-2-G101V protein (Homo sapiens, UniProt P10415, G101V)
IC50 [nM]: 3.7
--
molecule: CC(C)c1ccccc1[C@@H]1CCCN1C1CC2(CCN(c3ccc(C(=O)NS(=O)(=O)c4ccc(NC[C@H]5CC[C@](C)(O)CC5)c([N+](=O)[O-])c4)c(N4C[C@H](C)Oc5nc6[nH]ccc6cc54)c3)CC2)C1
test.system: recombinant human Bcl-2-G101V protein (Homo sapiens, UniProt P10415, G101V)
IC50 [nM]: 1.2
--
molecule: CC(C)c1ccccc1[C@@H]1CCCN1C1CC2(C1)CN(c1ccc(C(=O)NS(=O)(=O)c3ccc(NC[C@H]4COCCO4)c([N+](=O)[O-])c3)c(N3CCCOc4nc5[nH]ccc5cc43)c1)C2
test.system: recombinant human Bcl-2-G101V protein (Homo sapiens, UniProt P10415, G101V)
IC50 [nM]: 5.2

* * *

biological target: BA/F3-BCL-2 G101V cells (Homo sapiens, UniProt P10415, G101V, cells depend on it); assay: BA/F3 cell proliferation assay, Bcl-2 G101V; type: cell-based, Murine; conditions: 24 hrs treatment, 3% FBS, CellTiter-Glo, geometric mean of 3 experiments; read-out: Cellular proliferation assay (IC50, nM) Bcl-2 G101V; BaF3 cell

molecule: CC(C)c1ccccc1[C@@H]1CCCN1C1CC2(CCN(c3ccc(C(=O)NS(=O)(=O)c4cc5c(c([N+](=O)[O-])c4)N[C@H](C[C@H]4CC[C@H](O)CC4)CO5)c(N4CCCOc5nc6[nH]ccc6cc54)c3)CC2)C1 [Example B9]
test.system: BA/F3-BCL-2 G101V cells (Homo sapiens, UniProt P10415, G101V, cells depend on it)
GI50 / nM: 34.9
--
molecule: CC(C)c1ccccc1[C@@H]1CCCN1C1CC2(CCN(c3ccc(C(=O)NS(=O)(=O)c4ccc(NC[C@H]5CC[C@](C)(O)CC5)c([N+](=O)[O-])c4)c(N4CCCOc5nc6[nH]ccc6cc54)c3)CC2)C1 [Example B1]
test.system: BA/F3-BCL-2 G101V cells (Homo sapiens, UniProt P10415, G101V, cells depend on it)
GI50 / nM: 15.5
--
molecule: CC(C)c1ccccc1[C@@H]1CCCN1C1CC2(CCN(c3ccc(C(=O)NS(=O)(=O)c4ccc(NC[C@H]5CC[C@](C)(O)CC5)c([N+](=O)[O-])c4)c(N4C[C@H](C)Oc5nc6[nH]ccc6cc54)c3)CC2)C1 [Example B6]
test.system: BA/F3-BCL-2 G101V cells (Homo sapiens, UniProt P10415, G101V, cells depend on it)
GI50 / nM: 31.9
--
molecule: CC(C)c1ccccc1[C@@H]1CCCN1C1CC2(CCN(c3ccc(C(=O)NS(=O)(=O)c4cc5c(c([N+](=O)[O-])c4)N[C@H](C[C@H]4CC[C@@H](O)CC4)CO5)c(Oc4cnc5[nH]ccc5c4)c3)CC2)C1 [Example A5]
test.system: BA/F3-BCL-2 G101V cells (Homo sapiens, UniProt P10415, G101V, cells depend on it)
GI50 / nM: 7.5
--
molecule: CC(C)c1ccccc1[C@@H]1CCCN1C1CC2(CCN(c3ccc(C(=O)NS(=O)(=O)c4cc5c(c([N+](=O)[O-])c4)N[C@H](CC4CCC(O)CC4)CO5)c(N4C[C@H](C)Oc5nc6[nH]ccc6cc54)c3)CC2)C1 (stereo partly drawn) [Example B8]
test.system: BA/F3-BCL-2 G101V cells (Homo sapiens, UniProt P10415, G101V, cells depend on it)
GI50 / nM: 41.2
--
molecule: CC(C)c1ccccc1[C@@H]1CCCN1C1CC2(CCN(c3ccc(C(=O)NS(=O)(=O)c4cc5c(c([N+](=O)[O-])c4)N[C@H](C[C@H]4CC[C@H](O)CC4)CO5)c(N4C[C@@H](C)Oc5nc6[nH]ccc6cc54)c3)CC2)C1 [Example B7]
test.system: BA/F3-BCL-2 G101V cells (Homo sapiens, UniProt P10415, G101V, cells depend on it)
GI50 / nM: 11.2
--
molecule: CC(C)c1ccccc1[C@@H]1CCCN1C1CC2(C1)CN(c1ccc(C(=O)NS(=O)(=O)c3ccc(NCC4(F)CCOCC4)c([N+](=O)[O-])c3)c(N3CCCOc4nc5[nH]ccc5cc43)c1)C2 [Example B14]
test.system: BA/F3-BCL-2 G101V cells (Homo sapiens, UniProt P10415, G101V, cells depend on it)
GI50 / nM: 26.5
--
molecule: CC(C)c1ccccc1[C@@H]1CCCN1C1CC2(CCN(c3ccc(C(=O)NS(=O)(=O)c4cc5c(c([N+](=O)[O-])c4)N[C@H](C[C@H]4CC[C@H](O)CC4)CO5)c(Oc4cnc5[nH]ccc5c4)c3)CC2)C1 [Example A4]
test.system: BA/F3-BCL-2 G101V cells (Homo sapiens, UniProt P10415, G101V, cells depend on it)
GI50 / nM: 9.8
--
molecule: CC(C)c1ccccc1[C@@H]1CCCN1C1CC2(C1)CN(c1ccc(C(=O)NS(=O)(=O)c3ccc(NC[C@H]4CC[C@](C)(O)CC4)c([N+](=O)[O-])c3)c(N3CCCOc4nc5[nH]ccc5cc43)c1)C2 [Example B13]
test.system: BA/F3-BCL-2 G101V cells (Homo sapiens, UniProt P10415, G101V, cells depend on it)
GI50 / nM: 39.1
